target: Aldo-keto reductase family 1 member B1 (Homo sapiens, UniProt P15121); assay: Inhibition of reductase activity of N-terminal 6His-tagged human recombinant AKR1B1 expressed in Escherichia coli BL21(DE3) assessed as assessed as pyridine-3-aldehyde reduction
pIC50: −log10 of the molar value.
Test Readout: pIC50

Compound	Tested System	Quantitative Readout
CC1(C)[C@@H](O)CC[C@]2(C)[C@H]3C(=O)C=C4[C@@H]5C[C@@](C)(C(=O)O)CC[C@]5(C)CC[C@@]4(C)[C@]3(C)CC[C@@H]12 [ENOXOLONE]	Aldo-keto reductase family 1 member B1 (Homo sapiens, UniProt P15121)	3.55
C[C@H]1[C@H](C)CC[C@]2(C(=O)O)CC[C@]3(C)C(=CC[C@@H]4[C@@]5(C)CC[C@H](O)C(C)(C)[C@@H]5CC[C@]43C)[C@H]12 [URSOLIC ACID]	Aldo-keto reductase family 1 member B1 (Homo sapiens, UniProt P15121)	4.39
C=C(C)[C@@H]1CC[C@]2(C(=O)O)CC[C@]3(C)[C@H](CC[C@@H]4[C@@]5(C)CC[C@H](O)C(C)(C)[C@@H]5CC[C@]43C)[C@@H]12 [BETULINIC ACID]	Aldo-keto reductase family 1 member B1 (Homo sapiens, UniProt P15121)	4.96
CC1(C)CC[C@]2(CO)CC[C@]3(C)C(=CC[C@@H]4[C@@]5(C)CC[C@H](O)C(C)(C)[C@@H]5CC[C@]43C)[C@@H]2C1 [ERYTHRODIOL]	Aldo-keto reductase family 1 member B1 (Homo sapiens, UniProt P15121)	4.08
C[C@H]1[C@H](C)CC[C@]2(C(=O)O)CC[C@]3(C)C(=CC[C@@H]4[C@@]5(C)C[C@@H](O)[C@H](O)[C@@](C)(CO)[C@@H]5CC[C@]43C)[C@H]12 [ASIATIC ACID]	Aldo-keto reductase family 1 member B1 (Homo sapiens, UniProt P15121)	4.47
CC1(C)CC[C@]2(C(=O)O)CC[C@]3(C)C(=CC[C@@H]4[C@@]5(C)C[C@@H](O)[C@H](O)C(C)(C)[C@@H]5CC[C@]43C)[C@@H]2C1 [MASLINIC ACID]	Aldo-keto reductase family 1 member B1 (Homo sapiens, UniProt P15121)	4.14
CC1(C)CC[C@]2(C(=O)O)CC[C@]3(C)C(=CC[C@@H]4[C@@]5(C)CC[C@H](O)C(C)(C)[C@@H]5CC[C@]43C)[C@@H]2C1 [OLEANOLIC_ACID]	Aldo-keto reductase family 1 member B1 (Homo sapiens, UniProt P15121)	3.91
